target: Alpha-2B adrenergic receptor (Homo sapiens, UniProt P18089); assay: Binding affinity to adrenergic alpha2b receptor
Sequence (P18089 whole entry): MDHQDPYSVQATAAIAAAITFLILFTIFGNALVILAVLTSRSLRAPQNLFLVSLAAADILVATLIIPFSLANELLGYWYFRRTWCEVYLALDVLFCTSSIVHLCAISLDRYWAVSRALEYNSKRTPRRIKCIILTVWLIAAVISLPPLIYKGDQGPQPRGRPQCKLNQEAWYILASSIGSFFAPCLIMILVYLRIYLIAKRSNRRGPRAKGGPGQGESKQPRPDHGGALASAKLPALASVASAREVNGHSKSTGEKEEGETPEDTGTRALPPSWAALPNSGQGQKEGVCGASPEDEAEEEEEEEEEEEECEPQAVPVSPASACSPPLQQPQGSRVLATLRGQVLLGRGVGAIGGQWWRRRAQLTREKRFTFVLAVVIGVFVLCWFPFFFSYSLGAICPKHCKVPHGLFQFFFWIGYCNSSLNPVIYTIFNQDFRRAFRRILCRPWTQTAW
pIC50: −log10 of the molar value.
Listed here are compounds together with their documented pIC50.
property.label: pIC50

>>> df
                  compound_structure_string  property_label  test_result
0  CC[C@@H](C)Nc1nc(C)nc2c(-c3c(C)cc(OC)cc3OC)c(C)nn12           pIC50       < 6.00
1  CCC(CC)Nc1nc(C)nc2c(-c3cc(F)c(OC)cc3Cl)c(C)nn12           pIC50       < 6.00

###

test: Elimination half life in Beagle dog at 5 mg/kg, iv; type: ADME, organism-based, Canis lupus familiaris; parameters: dose 5 mg/kg, route intravenous; settings: in vivo, read-out: beta t1/2 (converted)
property.label: half-life (h)

                  compound_structure_string  property_label  test_result
0  COCCN(CCOC)c1nc(C)nc2c(-c3ccc(OC)cc3C)c(C)nn12       half-life         27.3
1  COCCN(CCOC)c1nc(C)nc2c(-c3cc(C)c(OC)cc3C)c(C)nn12       half-life         40.2
